Reference for the values: paper PMC5540273

- Tested on: CAMK1G
- Study Conditions: concentration: 1 μM, replicates: in singlicate; n = 1
Provide the recorded %Inh for the entries that follow.
Just the number in %, nothing appended.

Form entry - test system: CAMK1G; read-out: %Inh; molecule: Nc1ncnc2scc(-c3ccc(NC(=O)Cc4cc(F)ccc4F)cc3)c12.O=C(O)C(F)(F)F
15

Form entry - test system: CAMK1G; read-out: %Inh; molecule: COc1cccc(C2=C(Nc3cccc(O)c3)C(=O)NC2=O)c1
0

Form entry - test system: CAMK1G; read-out: %Inh; molecule: CCn1cnc2c(NCc3ccccc3)ncnc21
0

Form entry - test system: CAMK1G; read-out: %Inh; molecule: Cc1ccc(NC(=O)c2ccnc(N3CCCCC3)c2)cc1-c1ccc(C(=O)NCC2CC2)cc1
0

Form entry - test system: CAMK1G; read-out: %Inh; molecule: CN1CCN(Cc2ccc(NC(=O)Nc3ccc(N(C)c4ccnc(Nc5ccc(CS(C)(=O)=O)cc5)n4)cc3)cc2)CC1.Cl
23

Form entry - test system: CAMK1G; read-out: %Inh; molecule: CN(c1ccc(NC(=O)Nc2cccc(Cl)c2)cc1)c1ccnc(N)n1.Cl
0

Form entry - test system: CAMK1G; read-out: %Inh; molecule: Cn1cc(-c2ccc3c(c2)CCN3C(=O)Cc2cc(F)cc(F)c2F)c2c(N)ncnc21
0

Form entry - test system: CAMK1G; read-out: %Inh; molecule: CSc1ccc(NC2=C(c3ccc(Cl)cc3)C(=O)NC2=O)cc1;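 note: KINOMEscan kinase panel screen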
0
